# test target: TDP-43 (Homo sapiens, UniProt Q13148 1-414)
# Sequence (Q13148 whole entry): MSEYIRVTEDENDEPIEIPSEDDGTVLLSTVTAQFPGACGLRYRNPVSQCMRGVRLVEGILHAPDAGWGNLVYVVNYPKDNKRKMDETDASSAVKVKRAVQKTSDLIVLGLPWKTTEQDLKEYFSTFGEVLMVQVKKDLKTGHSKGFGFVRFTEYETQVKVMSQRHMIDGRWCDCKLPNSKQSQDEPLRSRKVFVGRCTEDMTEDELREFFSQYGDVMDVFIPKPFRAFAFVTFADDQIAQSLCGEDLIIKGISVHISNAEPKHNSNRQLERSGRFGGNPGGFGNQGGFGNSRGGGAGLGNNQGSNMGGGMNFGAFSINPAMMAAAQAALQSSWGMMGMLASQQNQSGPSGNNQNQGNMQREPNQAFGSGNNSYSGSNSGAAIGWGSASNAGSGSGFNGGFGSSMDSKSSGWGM
# assay explanation: RNA Bind-n-Seq with designed 260-mer pool; 25 mM Tris-HCl, 150 mM KCl, 3 mM MgCl2, BSA (printed 500 mg/mL), 20 units/mL SUPERase IN; pH not stated; 500 nM RNA pool, 1 h, 4 C; TDP-43 5, 50, 500 nM; high values mean tight binding
# condition parameters: protein: recombinant; tags: SBP (GST cleaved off with PreScission; pGEX-GST-SBP)
Whole data set: some 9,900 sequences, median “r (bound/input frequency ratio)” near 0.7, cut for the highest 2% near 6.5. Many of the other results were omitted from the sample, so the highest values are more common in it than they were.
Can you tell me binding signal for the items I'm about to list?

Consider the worked cases shown below.
*Q* Reported binding signal for ENSMUSG00000031028.418|Tub|70:74;204:208;210:222;228:242 (ssRNA) RNA: GGGAGUUCUACAGUCCGACGAUCGCUUCGAUAUCCGCAUGCUAGCAAAUUGGUGAGAAGAGCAGCCUAGUCUGUAAGAGUGCAGGGCAGCUGGAACCUUAGGCAGCUCCUCUCAUACCUACCGGCUCCACACCCUAACACUCUCCACCCUCUGCUCCAAACCAGUUCUUCUGCAGAGUGGUGAUGUUAGCUUCCCCAGCUCCUCUCCAAGUCUAGCUUUUUCUGUCCUUCUGGCUCCAAGGUGCUCACACACACACACACACACACUGUCACACACACACACACACGAGGAAAGGGCAAUCUGCUCUUGCGGUCGCACUAGUGUGGAAUUCUCGGGUGUCAAGG : what is it?
*A* 3.24 R (bound/input frequency ratio)

*Q* Reported binding signal for ENSMUSG00000029636.77|Wasf3 (ssRNA) RNA: GGGAGUUCUACAGUCCGACGAUCGCUUCGAUAUCCGCAUGCUAAAGAUCACUGGCUGUGUGUCUCAGUGAUGUCUUCCAACCAGUGGGUGAUACGUUUUCCUGUUUCUUCCCUUUGCAAAUUGAAUUCCAGGUAGAUAUGGUUGUAGAGGGGAAAGUUUAACAAAUCAGAAUGAAAUGUUUGUCUGUUUGCACACUGGGCCUGGUGGCCUCCAAGGAAAUGUGUACGAUCGUUUGCUUUCUCUAUCUUGGCGCUUGCAACCGAGAGCGGCCAUUUUUAUGAGGGGAGCCCUGUGGGUACUCAUCUCUUGCGGUCGCACUAGUGUGGAAUUCUCGGGUGUCAAGG : what is it?
*A* 4.99 R (bound/input frequency ratio)

*Q* Reported binding signal for ENSMUSG00000031028.551|Tub (ssRNA) RNA: GGGAGUUCUACAGUCCGACGAUCGCUUCGAUAUCCGCAUGCUACCUGGUUUCCCUUCUCAGCAGUCCUGGCCUCCCCUUCUCUGUAUUCCUUGCCCCAGCUACGAUAUCCUCAUGGGAUUUCAGGAUGCCAGGUGCCAUCAAAGCAUGCUUUUUUGUGGUGCCUAGCACUGUGACUGGGGCCCAACUGCCCUGCAGAGUUGGGACCUUGCACUGCCCUAGACCCUGGCUUUAGAUCUGCUUCAGUCUCCAGAACAGGCUAUGGGAUAGAUUUUUCUUUCAGUUUAUGGCCACCUGCCCAAAUUCUCUUGCGGUCGCACUAGUGUGGAAUUCUCGGGUGUCAAGG : what is it?
*A* 0.798 R (bound/input frequency ratio)

Now, please, on to the next binder.
*Q* Reported binding signal for ENSMUSG00000042529.395|Kcnj12 (ssRNA) RNA: GGGAGUUCUACAGUCCGACGAUCGCUUCGAUAUCCGCAUGCUACCCUGCCCUGCCCUGGUUAUGCAGGCUGUACGACGCAGUGUGCAUCAGUCUGAGGAGUCUGGUGGUAAGUAAGCCUCUGCAGCAGACCCUGUCGGAGGCCAUGGGGGCGUGUGUGUGUGUGUGUGUGUGUGUGUGUGUGUGUGUGUGUGUGUGUGUGUGUGAACAUGUGUGAGGGUGUGGAGGUCCCAGGGUGUGUGUAUGUGAAUGUCAGUGGCUUGGGUGCUGUGUGGAGAGAGAGAGAGAGAGAGAGAGAGAGAGAGCUCUUGCGGUCGCACUAGUGUGGAAUUCUCGGGUGUCAAGG : what is it?
*A* 5.73 R (bound/input frequency ratio)
